- MEASURED ON: UniProt:O60656
- EXPERIMENT SUMMARY: Kinetic profiling of glucuronidation by expressed human UGT1A9
- DETAILS: log of experimental CLint (μl/mg/min)
ASSAY METRIC: Log (CLint) (Actual)

>>> numeric_value("COc1ccc(/C=C\\c2cc(OC)c(OC)c(OC)c2)cc1O")
3.33
>>> numeric_value("O=C(O)/C=C/c1ccc(O)c(O)c1")
1.04
>>> numeric_value("O=C(c1ccccc1)c1ccc(O)cc1 [compound 122, 4-Hydroxybenzophenone]")
1.83
>>> numeric_value("COc1cc2c(=O)c(-c3ccccc3)coc2cc1O [compound 98, 7-Hydroxy-6-methoxyisoflavone]")
2.57
>>> numeric_value("Cc1ccc2oc(=O)cc(O)c2c1 [compound 11, 4-Hydroxy-6-methylcoumarin]")
0.59
>>> numeric_value("O=C1C[C@@H](c2ccc(O)cc2)Oc2cc(O)cc(O)c21")
3.18
>>> numeric_value("O=c1cc(-c2ccccc2)oc2cc(O)c(O)cc12 [compound 37, 6,7-Dihydroxyflavone]")
2.96
>>> numeric_value("COc1cc(/C=C/C(=O)CC(=O)/C=C/c2ccc(O)c(OC)c2)ccc1O")
1.74
>>> numeric_value("COc1ccc2c(=O)c(-c3ccccc3)coc2c1O [compound 99, 8-Hydroxy-7-methoxyisoflavone]")
3.57
>>> numeric_value("O=C(CCc1ccc(O)cc1)c1c(O)cc(O)cc1O")
2.87
>>> numeric_value("Cc1c(-c2ccccc2)oc2cc(O)ccc2c1=O [compound 45, 7-Hydroxy-3-methylflavone]")
3.30
>>> numeric_value("Oc1ccc(/C=C/c2cc(O)cc(O)c2)cc1")
1.8
>>> numeric_value("COc1c(O)cc(O)c2c(=O)cc(-c3ccccc3)oc12")
3.60
>>> numeric_value("COc1cc2oc(=O)cc(-c3ccccc3)c2cc1O [compound 12, 6-Hydroxy-7-methoxyl-4-phenylcoumarin]")
1.07
>>> numeric_value("O=c1c(O)c(-c2ccc(O)c(O)c2)oc2cc(O)ccc12")
3.38
>>> numeric_value("Oc1cc(O)c2c(c1)O[C@H](c1cc(O)c(O)c(O)c1)[C@H](O)C2 [compound 2, (−)-Epigallocatechin]")
1.58
>>> numeric_value("COc1cc(/C=C/C(O)=C/C(=O)/C=C/c2ccc(O)cc2)ccc1O")
1.14

---

- MEASURED ON: UniProt:O60656
- Sequence (O60656 26-530): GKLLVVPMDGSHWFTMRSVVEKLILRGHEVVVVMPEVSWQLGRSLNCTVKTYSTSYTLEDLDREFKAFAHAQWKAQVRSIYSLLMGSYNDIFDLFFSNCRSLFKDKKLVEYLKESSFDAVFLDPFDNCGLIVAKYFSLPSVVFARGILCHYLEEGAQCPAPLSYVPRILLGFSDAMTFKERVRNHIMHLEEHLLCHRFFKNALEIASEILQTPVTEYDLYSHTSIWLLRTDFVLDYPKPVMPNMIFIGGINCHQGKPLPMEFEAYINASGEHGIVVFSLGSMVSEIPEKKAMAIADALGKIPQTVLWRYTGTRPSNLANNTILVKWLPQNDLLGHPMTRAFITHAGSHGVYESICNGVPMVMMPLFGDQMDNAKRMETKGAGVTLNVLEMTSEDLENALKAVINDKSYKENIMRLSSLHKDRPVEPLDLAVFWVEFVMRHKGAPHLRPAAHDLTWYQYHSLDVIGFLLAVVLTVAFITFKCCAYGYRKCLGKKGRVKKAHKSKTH
ASSAY METRIC: CLint (Vmax/Km) (µL/min/mg)

>>> numeric_value("CCc1c2c(nc3ccc(O)cc13)-c1cc3c(c(=O)n1C2)COC(=O)[C@]3(O)CC [compound 144, SN-38]")
3
>>> numeric_value("COc1ccc(-c2coc3cc(O)cc(O)c3c2=O)cc1 [compound 100, Biochanin A]")
335
>>> numeric_value("Cc1cc(O)cc2oc(-c3ccccc3)cc(=O)c12 [compound 48, 7-Hydoxy-5-methylflavone]")
5712
>>> numeric_value("O=c1c(O)c(-c2ccc(O)cc2)oc2ccccc12 [compound 64, 3,4′-Dihydroxyfavone]")
14000
>>> numeric_value("Oc1ccc(N=Nc2ccccc2)cc1 [compound 124, 4-Phenylazophenol]")
14
>>> numeric_value("COc1cc(/C=C/C(=O)O)ccc1O [compound 95, Ferulic Acid]")
0.4
>>> numeric_value("O=C1c2ccc(O)cc2OCC1c1ccc(O)cc1 (stereo not drawn) [compound 102, Dihydrodaidzein]")
8.1
>>> numeric_value("O=c1c(O)c(-c2ccccc2)oc2ccc(O)cc12 [compound 65, 3,6-Dihydroxyfavone]")
21000
>>> numeric_value("O=c1cc(-c2cccc(O)c2)oc2cc(O)c(O)cc12 [compound 36, 6,7,3′-Trihydroxflavone]")
775

The reported numbers originate from paper PMC3409642.
